Biological target: WDR5 (Homo sapiens, UniProt P61964)
Assay: biochemical
Type: binding
Conditions: […]; 10mer-Thr-FAM probe 150 nM; Tb-anti-HIS 1 nM; 60 min, room temperature; read-out: Ki for Inhibition of WDR5 by TR-FRET assay
valueType: Ki (nM)
Give bare numbers, in nM.

Ki recorded for this compound, COc1cc(CN2CCc3c(cc(CN4CCCC4=N)cc3-c3cccnc3C(F)(F)F)C2=O)cc(OC)c1 , is 0.11
